- System: K-562 leukemia
Bench note: report the call from active, inactive

Observe how each entry below is paired with its result.
[
  {
    "CHEM SMILES": "Cc1ccc(C(C)C)cc1NC(=O)Nc1ccc([N+](=O)[O-])cc1",
    "TARGET": "K-562 leukemia",
    "CLASS ASSIGNMENT": "inactive"
  },
  {
    "CHEM SMILES": "CC(=O)N(Cc1ccccc1)c1ccccc1I(=O)=O",
    "TARGET": "K-562 leukemia",
    "CLASS ASSIGNMENT": "inactive"
  },
  {
    "CHEM SMILES": "O=C(NCCCCCCCNC(=O)OCc1ccc2c(Cl)cc(Cl)c(O)c2n1)OCc1ccc2c(Cl)cc(Cl)c(O)c2n1",
    "TARGET": "K-562 leukemia",
    "CLASS ASSIGNMENT": "active"
  }
]

Now for another entry.
Lab log entry: Oc1ccc(Cl)cc1Cc1cc(Cl)ccc1O — outcome as called in the assay? inactive

###

Each entry below carries its recorded TGI.
- System: M14 melanoma
- ASSAY NAME: NCI tumour cell line growth inhibition, 48 h

[
  {
    "COMPOUND": "CCOC(=O)C1CCCCN1CCc1c[nH]c2ccccc12 (stereo unspecified)",
    "TARGET": "M14 melanoma",
    "TEST VALUE": "> 100 µM"
  }
]

// TGI lookup, compound = N#Cc1nc(C#N)n(C(=O)c2ccccc2)c1NC(=O)c1ccccc1 , result: > 100 µM

// TGI lookup, compound = CC1CC2(C)CC(=O)C1C1C(=O)N(CCN3CCCCC3)C(=O)C12 (stereo unspecified) , result: > 100 µM

// TGI lookup, compound = O=c1c2ccccc2oc2ccc(OCCCCCCN3CCCCCC3)cc12 , result: 3.69 µM

// TGI lookup, compound = S=C(NCc1ccccc1)N/N=C/c1ccccn1 , result: 9.32 µM

// TGI lookup, compound = CC(=O)Oc1ccc2c(c1)CC[C@@H]1C2CC[C@]2(C)C(=O)NC(=O)CC12 (stereo partly specified) , result: > 100 µM

// TGI lookup, compound = CC1=NN(C(=O)c2ccccc2O)C(=O)/C1=C/c1cccc([N+](=O)[O-])c1 , result: > 100 µM

// TGI lookup, compound = CCC1CNC(=O)CC1CC(=O)OC (stereo unspecified) , result: > 100 µM

###

- Tested on: HCT-116 colon
Each entry below carries its recorded GI50.

The examples below pair each entry with its known result.
[
  {
    "COMPOUND": "CC1COCC(C)N1C1=C(Cl)C(=O)c2ccccc2C1=O (centres undefined)",
    "GI50": "1.65 µM"
  },
  {
    "COMPOUND": "Cc1cc(Cl)ccc1Nc1nc(C(F)(F)F)ccc1C(=O)N1CCN(c2cccc(Cl)c2)CC1",
    "GI50": "37.3 µM"
  },
  {
    "COMPOUND": "C=[CH][Sn]([CH]=C)([O]c1cccc2cccnc12)[O]c1cccc2cccnc12",
    "GI50": "1.12 µM"
  },
  {
    "COMPOUND": "COc1cccc(C2NC(=S)NC(C)=C2C(=O)Nc2ccc(Cl)c(Cl)c2)c1 (centres undefined)",
    "GI50": "8.47 µM"
  },
  {
    "COMPOUND": "COc1cccc(/C=C/C(=O)c2cc3c(N)c(C(=O)Nc4cccc5ccccc45)sc3nc2C)c1",
    "GI50": "0.619 µM"
  }
]

Reading of GI50 for Cc1ccc(C(C)C)cc1NC(=O)Nc1ccc([N+](=O)[O-])cc1 with HCT-116 colon: 2.45 µM

Reading of GI50 for O=C(Nc1cccc(-n2cc(-c3ccncc3)c(-c3ccc(O)c(Cl)c3)n2)c1)c1cccc(C(F)(F)F)c1 with HCT-116 colon: 3.24 µM

Reading of GI50 for CN1CCN(c2nc(-c3ccncc3)nc3sc4c(c23)CCCCCC4)CC1 with HCT-116 colon: 5.13 µM

Reading of GI50 for Nc1[nH]c(=O)ncc1CO with HCT-116 colon: > 100 µM

###

- System: M14 melanoma
- ASSAY NAME: NCI tumour cell line growth inhibition, 48 h
TGI below 20 µM gives Not met; TGI at or above it gives Met.

Observe how each entry below is paired with its result.
[
  {
    "COMPOUND": "C=C(C)[C@@H]1CC[C@]2(C(=O)O)CC[C@]3(C)[C@H](CCC4[C@@]5(C)CC[C@H](C(=O)/C=C/c6ccc(O)c(O)c6)C(C)(C)[C@@H]5CC[C@]43C)[C@@H]12 (stereo partly specified)",
    "CLASS ASSIGNMENT": "Not met"
  },
  {
    "COMPOUND": "CCOP(=O)(Nc1ccc2oc(=O)c3ccccc3c2c1)OCC",
    "CLASS ASSIGNMENT": "Met"
  },
  {
    "COMPOUND": "CC(=O)/C(=C\\c1ccc(Cl)c(Cl)c1)C(=O)C(C)CN(C)C (stereo unspecified)",
    "CLASS ASSIGNMENT": "Met"
  }
]

Reported TGI at or above 20 µM? CC/C=C\C/C=C\C[C@H](O)C/C=C1/C(=O)C=C[C@@H]1C/C=C\CCCC(=O)OC Not met

Reported TGI at or above 20 µM? COc1ccc(C(O)CC(O)(C(F)(F)F)C(F)(F)F)cc1 (stereo unspecified) Met

Reported TGI at or above 20 µM? Nc1[nH]c(=O)ncc1CO Met

Reported TGI at or above 20 µM? Cc1ccc(S(=O)(=O)n2cc(C#N)c(C#N)c2)cc1 Met

Reported TGI at or above 20 µM? CCSC(SCC)=C1C(=O)N(c2ccccc2)N=C1C Met

###

- Tested on: HOP-62 NSCLC
- ASSAY NAME: NCI tumour cell line growth inhibition, 48 h
PROPERTY LABEL: TGI

The examples below pair each entry with its known result.
[
  {
    "COMPOUND": "CCOP(=O)(OCC)/C(C#N)=C/c1cccn1Cc1ccccc1",
    "TGI": "> 100 µM"
  },
  {
    "COMPOUND": "CSc1nc(NC(C)C)c2c(n1)Sc1nc3ccccc3n1C2O (stereo not given)",
    "TGI": "> 100 µM"
  },
  {
    "COMPOUND": "NS(=O)(=O)c1ccc(NNc2c3ccccc3nc3c(C(=O)Nc4ccc(S(=O)(=O)Nc5ncccn5)cc4)cccc23)cc1",
    "TGI": "> 25 µM"
  },
  {
    "COMPOUND": "CC1=C(C(=O)Nc2ccc(Cl)c(Cl)c2)C(c2ccccc2O)NC(=O)N1 (stereo not given)",
    "TGI": "> 50 µM"
  },
  {
    "COMPOUND": "O=c1cc(NCc2ccncc2)[nH]c(=O)[nH]1",
    "TGI": "> 100 µM"
  }
]

// TGI lookup, compound = CC(C)C(=O)Oc1cc2c(=O)oc3c(OC(=O)C(C)C)c(OC(=O)C(C)C)cc4c(=O)oc(c1OC(=O)C(C)C)c2c34 , result: > 100 µM

// TGI lookup, compound = COC(=O)CC(C(C(C)=O)C(=O)OCc1ccccc1)N1C(=O)OCC1c1ccccc1 (stereo not given) , result: > 100 µM

// TGI lookup, compound = CC/C=C\C/C=C\C[C@H](O)C/C=C1/C(=O)C=C[C@@H]1C/C=C\CCCC(=O)OC , result: 4.1 µM

// TGI lookup, compound = CCOC(=O)C1CCCCN1CCc1c[nH]c2ccccc12 (stereo not given) , result: > 100 µM

// TGI lookup, compound = CN1CCc2c1nc(-c1ccc([N+](=O)[O-])cc1)c1c2N(C)CC1 , result: > 100 µM

###

- Tested on: HT29 colon
Bench note: report the call from active, inactive

[
  {
    "MOLECULE": "C=CC1CN2CCC1CC2C(O)c1ccnc2ccccc12 (stereo not drawn)",
    "TARGET": "HT29 colon",
    "CLASS ASSIGNMENT": "inactive"
  },
  {
    "MOLECULE": "CCOc1cc(-c2ccc[nH]2)[nH]c1/C=C1\\N=C(C)C(C(=O)OC)=C1C",
    "TARGET": "HT29 colon",
    "CLASS ASSIGNMENT": "active"
  }
]

Now for another entry.
Lab log entry: CSC1=NCC2(S1)c1ccccc1N(C(=O)OC(C)(C)C)C2N1CCCCC1 (stereo not drawn) — outcome as called in the assay? inactive

###

Read-out record for COLO 205 colon: GI50

[
  {
    "COMPOUND": "COc1ccccc1CNCCCCCCCCCCCCN1C(=O)c2ccc3c4c(ccc(c24)C1=O)C(=O)N(CCCCCCCCCCCCNCc1ccccc1OC)C3=O",
    "PROPERTY LABEL": "GI50",
    "TEST VALUE": "> 50 µM"
  },
  {
    "COMPOUND": "CC1=C(C(=O)Nc2ccc(Cl)c(Cl)c2)C(c2ccccc2O)NC(=O)N1 (stereo not drawn)",
    "PROPERTY LABEL": "GI50",
    "TEST VALUE": "28.3 µM"
  }
]

Reading of GI50 for CN1CCN(c2nc(-c3ccncc3)nc3sc4c(c23)CCCCCC4)CC1 with COLO 205 colon: 4.94 µM
